B1: BRF1 (parent)
chain: FVESSGGGSSAVGQFVSLDGAGKT

Variants of: B1
Assay: protein stability index of a GFP-peptide fusion (GPS, HEK-293T) (PSI 1-6); higher = more stable;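 further: lentivirally expressed fusions sorted by FACS into six bins by GFP to DsRed ratio, PSI derived from sequencing read proportions per bin multiplied by bin number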
Details: c terminus: a fixed tail appended
parameter: protein stability index

These solved cases illustrate the format of a correct answer.
A11D
2.68
E3M
2.71
L18Y
1.85

What value of protein stability index has been recorded for this entry: "A21M"
2.32

What value of protein stability index has been recorded for this entry: "Q14T"
1.86

What value of protein stability index has been recorded for this entry: "E3R"
3.14
